# Tested on: Human neutrophils
# conditions-used: human, 24 h
For each entry below, report its MEC of cytotoxic action value.
Give just the number in µM; leave the unit off.

Return reported MEC of cytotoxic action. Input molecule: CO[C@H]1/C=C/O[C@@]2(C)Oc3c(C)c(O)c4c(O)c(c(/C=N/N5CCN(C)CC5)c(O)c4c3C2=O)NC(=O)/C(C)=C\C=C\[C@H](C)[C@H](O)[C@@H](C)[C@@H](O)[C@@H](C)[C@H](OC(C)=O)[C@@H]1C
20

Specify measured MEC of cytotoxic action for CNC(C)C1CCC(N)C(OC2C(N)CC(N)C(OC3OCC(C)(O)C(NC)C3O)C2O)O1 (stereo not shown) .
50

---

# Tested on: E. coli ESBL 521/17
# assay-details: Checkerboard titration (FICI)
# Type: cell-based, Escherichia coli
# conditions-used: antibiotic in combination with PG-1
Exam item: assign satisfied to entries whose Minimal FICI is below 0.8 and not satisfied to entries at or above 0.8. Note that a value of exactly 0.8 receives not satisfied.

For this compound, is Minimal FICI lower than 0.8? CC1COc2c(N3CCN(C)CC3)c(F)cc3c(=O)c(C(=O)O)cn1c23 (centres unmarked)
satisfied

Given the entry CC[C@H]1OC(=O)[C@H](C)[C@@H](O[C@H]2C[C@@](C)(OC)[C@@H](O)[C@H](C)O2)[C@H](C)[C@@H](O[C@@H]2O[C@H](C)C[C@H](N(C)C)[C@H]2O)[C@](C)(O)C[C@@H](C)C(=O)[C@H](C)[C@@H](O)[C@]1(C)O , would its reported Minimal FICI be below 0.8?
satisfied

Field: below-cutoff. Rule: recorded Minimal FICI strictly less than 0.8. Subject: Cc1onc(-c2ccccc2)c1C(=O)N[C@@H]1C(=O)N2[C@@H]1SC(C)(C)[C@@H]2C(=O)O
not satisfied

Please let me know if C[C@@H](O)[C@H]1C(=O)N2C(C(=O)O)=C(S[C@@H]3CN[C@H](C(=O)N(C)C)C3)[C@H](C)[C@H]12 shows Minimal FICI below 0.8.
not satisfied

Given the entry NCC[C@H](O)C(=O)N[C@@H]1C[C@H](N)[C@@H](O[C@H]2O[C@H](CN)[C@@H](O)[C@H](O)[C@H]2O)[C@H](O)[C@H]1O[C@H]1O[C@H](CO)[C@@H](O)[C@H](N)[C@H]1O , would its reported Minimal FICI be below 0.8?
satisfied

---

Hi there, I'd appreciate the recorded MEC of hemolysis of human erythrocytes for every entry that follows.
# Test system: human erythrocytes
# conditions-used: human, 30 min
State just the number; it will be interpreted in µM.

Enter MEC of hemolysis of human erythrocytes (test system human erythrocytes) for Cc1onc(-c2ccccc2)c1C(=O)N[C@@H]1C(=O)N2[C@@H]1SC(C)(C)[C@@H]2C(=O)O [Oxacillin]
25

Specify the recorded MEC of hemolysis of human erythrocytes for CO[C@H]1/C=C/O[C@@]2(C)Oc3c(C)c(O)c4c(O)c(c(/C=N/N5CCN(C)CC5)c(O)c4c3C2=O)NC(=O)/C(C)=C\C=C\[C@H](C)[C@H](O)[C@@H](C)[C@@H](O)[C@@H](C)[C@H](OC(C)=O)[C@@H]1C [Rifampicin] , system: human erythrocytes.
20

---

For each entry below, report its MIC value.
# Tested on: E. coli ML-35p
# assay-details: microbe, parasite or virus in culture
# Assay type: cell-based, Escherichia coli
# conditions-used: Escherichia coli, ML35P, median of 3–6 experiments, value in square brackets = twice the maximal tested concentration, read-out: MIC
Form entry: value (µM) — number only.

Tell me MIC of CNC(C)C1CCC(N)C(OC2C(N)CC(N)C(OC3OCC(C)(O)C(NC)C3O)C2O)O1 (stereo not shown) when tested on E. coli ML-35p.
0.625

Check E. coli ML-35p data and give MIC for CC1COc2c(N3CCN(C)CC3)c(F)cc3c(=O)c(C(=O)O)cn1c23 (stereo not shown) .
0.125

Tell me its MIC on E. coli ML-35p: CO[C@H]1/C=C/O[C@@]2(C)Oc3c(C)c(O)c4c(O)c(c(/C=N/N5CCN(C)CC5)c(O)c4c3C2=O)NC(=O)/C(C)=C\C=C\[C@H](C)[C@H](O)[C@@H](C)[C@@H](O)[C@@H](C)[C@H](OC(C)=O)[C@@H]1C
10

Just for reference, paper PMC6503114 is where these values come from.
